Listing of entries alongside the reported AST.
Organism: Rattus norvegicus
ASSAY DETAILS: Open TG-GATES - Regimen: Daily Repeat
Format: toxicity, organism-based, Sprague-Dawley
Parameters: regimen Daily Repeat, gender Male, age 6 weeks
RUN PARAMETERS: in vivo, po, 0 mg/kg, […], tissue Plasma, route gavage, dose level Control, time 7 day
READOUT TYPE: AST (IU/L)

[[record]]
molecule = "CC(S)C(=O)NCC(=O)O (configuration not stated)"
observed_measurement = 68.6

[[record]]
molecule = "CCCCNC(=O)NS(=O)(=O)c1ccc(C)cc1 [TOLBUTAMIDE]"
observed_measurement = 69.2

[[record]]
molecule = "CC(=O)[C@@]1(O)CC[C@H]2[C@@H]3C=C(Cl)C4=CC(=O)CC[C@]4(C)[C@H]3CC[C@@]21C"
observed_measurement = 67.8

[[record]]
molecule = "CCCCC1C(=O)N(c2ccccc2)N(c2ccccc2)C1=O"
observed_measurement = 69

[[record]]
molecule = "O=C(O)c1ccccc1Nc1ccccc1"
observed_measurement = 68.4

[[record]]
molecule = "Nc1ccc(Cc2ccc(N)cc2)cc1"
observed_measurement = 63.8

[[record]]
molecule = "O=c1ccc2ccccc2o1"
observed_measurement = 58

[[record]]
molecule = "CCO"
observed_measurement = 62

[[record]]
molecule = "NS(=O)(=O)c1cc(C(=O)O)c(NCc2ccco2)cc1Cl [FUROSEMIDE]"
observed_measurement = 61.4

[[record]]
molecule = "CN(CCOc1ccc(CC2SC(=O)NC2=O)cc1)c1ccccn1.O=C(O)/C=C\\C(=O)O (configuration not stated) [ROSIGLITAZONE MALEATE]"
observed_measurement = 58.8

[[record]]
molecule = "COc1ccc([C@@H]2Sc3ccccc3N(CCN(C)C)C(=O)[C@@H]2OC(C)=O)cc1"
observed_measurement = 72.6

[[record]]
molecule = "CN(C/C=C/C#CC(C)(C)C)Cc1cccc2ccccc12"
observed_measurement = 68.2


* * *

Species: Rattus norvegicus
ASSAY DETAILS: Open TG-GATES - Regimen: Daily Repeat
Assay type: toxicity, organism-based, Sprague-Dawley
Set-up: regimen Daily Repeat, gender Male, age 6 weeks
RUN PARAMETERS: in vivo, po, 300 mg/kg, […], tissue Plasma, route gavage, dose level Middle, time 28 day
READOUT TYPE: TG (mg/dL)

[[record]]
compound = "CC(S)C(=O)NCC(=O)O (centres undefined)"
observed_measurement = 127.6

[[record]]
compound = "CC(=O)[C@@]1(O)CC[C@H]2[C@@H]3C=C(Cl)C4=CC(=O)CC[C@]4(C)[C@H]3CC[C@@]21C"
observed_measurement = 153.6

[[record]]
compound = "CCCCNC(=O)NS(=O)(=O)c1ccc(C)cc1 [TOLBUTAMIDE]"
observed_measurement = 152.2

[[record]]
compound = "O=C(O)c1ccccc1Nc1ccccc1"
observed_measurement = 100.8


* * *

Species: Rattus norvegicus
ASSAY DETAILS: Open TG-GATES - Regimen: Daily Repeat
Assay type: toxicity, organism-based, Sprague-Dawley
Parameters: regimen Daily Repeat, gender Male, age 6 weeks
RUN PARAMETERS: in vivo, po, 0 mg/kg, […], tissue Plasma, route gavage, dose level Control, time 14 day
Criterion: gamma-GTP meeting or surpassing 1 IU/L. Met: Criterion met. Not met: Criterion not met.

[[record]]
compound = "CC(S)C(=O)NCC(=O)O (stereo not drawn)"
group_label = "Criterion met"

[[record]]
compound = "CCCCC1C(=O)N(c2ccccc2)N(c2ccccc2)C1=O"
group_label = "Criterion met"

[[record]]
compound = "O=c1ccc2ccccc2o1"
group_label = "Criterion met"

[[record]]
compound = "CC(=O)[C@@]1(O)CC[C@H]2[C@@H]3C=C(Cl)C4=CC(=O)CC[C@]4(C)[C@H]3CC[C@@]21C"
group_label = "Criterion met"

[[record]]
compound = "CCO"
group_label = "Criterion not met"

[[record]]
compound = "CCN(CC)C(=S)SSC(=S)N(CC)CC"
group_label = "Criterion met"

[[record]]
compound = "NS(=O)(=O)c1cc(C(=O)O)c(NCc2ccco2)cc1Cl [FUROSEMIDE]"
group_label = "Criterion not met"

